In this section we review reported Solubility in Rhodiasolv IRIS values for a set of compounds.
Experiment: Solubility in Rhodiasolv IRIS solvent
Type: physicochemical
Details: Rhodiasolv IRIS (dimethyl-2-methyl glutarate); wt %

# item_smiles, Solubility in Rhodiasolv IRIS
rows = [
    ("CC(C)(C)c1ccc(-c2oc3cc(OCCN4C(=O)CCC4=O)c(OCCN4C(=O)CCC4=O)cc3c2C2=C(c3cc(-c4cc(C(C)(C)C)cs4)sc3-c3cc(C(C)(C)C)cs3)C(F)(F)C(F)(F)C2(F)F)cc1", ">10%"),
    ("COc1ccc2c(C3=C(c4cc(-c5ccc(C(C)(C)C)s5)sc4-c4ccc(C(C)(C)C)s4)C(F)(F)C(F)(F)C3(F)F)c(-c3ccc(C(C)(C)C)cc3)oc2c1", "<3%"),
    ("CCOC(=O)CCCOc1cc2oc(-c3ccc(C(C)(C)C)cc3)c(C3=C(c4cc(-c5cc(C(C)(C)C)cs5)sc4-c4cc(C(C)(C)C)cs4)C(F)(F)C(F)(F)C3(F)F)c2cc1OCCCC(=O)OCC", ">10%"),
    ("COCCCOc1cc2oc(-c3ccc(C(C)(C)C)cc3)c(C3=C(c4cc(-c5cc6c(s5)C(C)(C)CCC6(C)C)sc4-c4cc5c(s4)C(C)(C)CCC5(C)C)C(F)(F)C(F)(F)C3(F)F)c2cc1OCCCOC", ">10%"),
    ("COc1cc2oc(-c3ccc(C(C)(C)C)cc3)c(C3=C(c4cc(-c5cc6c(s5)C(C)(C)CCC6(C)C)sc4-c4cc5c(s4)C(C)(C)CCC5(C)C)C(F)(F)C(F)(F)C3(F)F)c2cc1OC", "<3%"),
]

Challenge: Name the recorded Solubility in Rhodiasolv IRIS for COc1cc2oc(-c3ccc(C(C)(C)C)cc3)c(C3=C(c4cc(-c5cc6c(s5)C(C)(C)CCCC6(C)C)sc4-c4cc5c(s4)C(C)(C)CCCC5(C)C)C(F)(F)C(F)(F)C3(F)F)c2cc1OC .
Response given: >1%

Challenge: Item under review: CC(C)(C)c1ccc(-c2oc3ccccc3c2C2=C(c3cc(-c4ccc(C(C)(C)C)s4)sc3-c3ccc(C(C)(C)C)s3)C(F)(F)C(F)(F)C2(F)F)cc1 . Reported Solubility in Rhodiasolv IRIS?
Response given: <1%

Challenge: What value of Solubility in Rhodiasolv IRIS has been recorded for this entry: CCOC(=O)CCCOc1cc2oc(-c3ccc(C(C)(C)C)cc3)c(C3=C(c4cc(-c5sc(C(C)(C)C)cc5C)sc4-c4sc(C(C)(C)C)cc4C)C(F)(F)C(F)(F)C3(F)F)c2cc1OCCCC(=O)OCC
Response given: >10%

Challenge: Consider the compound COc1ccc2oc(-c3ccc(C(C)(C)C)cc3)c(C3=C(c4cc(-c5cc6c(s5)C(C)(C)CCC6(C)C)sc4-c4cc5c(s4)C(C)(C)CCC5(C)C)C(F)(F)C(F)(F)C3(F)F)c2c1 and give its measured Solubility in Rhodiasolv IRIS.
Response given: >3%

Challenge: State the recorded Solubility in Rhodiasolv IRIS for this entry: COc1cc2oc(-c3ccc(C(C)(C)C)cc3)c(C3=C(c4cc(-c5cc(C(C)(C)C)cs5)sc4-c4cc(C(C)(C)C)cs4)C(F)(F)C(F)(F)C3(F)F)c2cc1OC
Response given: >5%
